read-out: Transforming growth factor beta 1 (TGFb1), TGFB1 (gene 7040); assay: BSK_KF3CT_TGFb1: BioMAP Diversity Plus: KF3CT Assay for Transforming growth factor beta 1 (TGFb1) Biomarker Activity (AID 2283072); settings: primary human keratinocytes with fibroblasts; actives raise or lower the signal
The source made the active and inactive calls. How the source made its calls: active means hit-call score of the fitted dose curve at least 0.9, where 1 is the maximum; inactive means score below 0.9.
Respond using exactly one of the listed classes: 1 for active, 0 for inactive

Sample answers from the record:
| molecule | assigned-class |
| --- | --- |
| CCCOC(=O)NCCCN(C)C | 0 |
| CCOC(=O)c1ccc(O)cc1 | 0 |
| O=C(c1ccccc1)C1CCCCC1 | 0 |
| CCCN(CCC)c1c([N+](=O)[O-])cc(C(F)(F)F)c(N)c1[N+](=O)[O-] | 1 |

[ask] What did the test return for COC(=O)c1ccccc1S(=O)(=O)NC(=O)Nc1nc(OC(F)F)cc(OC(F)F)n1 ?
[reply] 0

[ask] What did the test return for C#CCOC(=O)[C@@H](C)Oc1ccc(Oc2ncc(Cl)cc2F)cc1 ?
[reply] 0
